Molecular target: UniProtKB A0A0S1RZ75
Assay: Pyrethroid depletion (metabolism) assay with recombinant enzyme
Assay type: biochemical
Settings: 20μM insecticide, 1 hour, vs -NADPH
ATTRIBUTE MEASURED: Percentage depletion (%)
Answers are plain numbers, in %.

Look at each compound and report its Percentage depletion.
1. CC1(C)[C@H](C(=O)O[C@H](C#N)c2cccc(Oc3ccccc3)c2)[C@@H]1/C=C(\Cl)C(F)(F)F (racemic)
2. CC1(C)C(C=C(Cl)Cl)C1C(=O)OCc1cccc(Oc2ccccc2)c1 (centres unmarked)
3. CC1(C)[C@H](C(=O)O[C@H](C#N)c2cccc(Oc3ccccc3)c2)[C@@H]1C=C(Br)Br
4. Cc1c(COC(=O)[C@@H]2[C@H](/C=C(\Cl)C(F)(F)F)C2(C)C)cccc1-c1ccccc1 (racemic)

[52.45, 66.42, 59.54, 51.02]

Supply Percentage depletion value. Item: CCOc1ccc(C(C)(C)COCc2cccc(Oc3ccccc3)c2)cc1
41.22

* * *

Target: MALCYP6P9b (Anopheles funestus, UniProt B5AII7)
Experiment: Pyrethroid depletion (metabolism) assay with recombinant enzyme
Type: biochemical
Settings: 20μM insecticide, 1 hour, vs -NADPH
ATTRIBUTE MEASURED: Percentage depletion

CCOc1ccc(C(C)(C)COCc2cccc(Oc3ccccc3)c2)cc1 [etofenprox] = 71.59±1.42 %
Cc1c(COC(=O)[C@@H]2[C@H](/C=C(\Cl)C(F)(F)F)C2(C)C)cccc1-c1ccccc1 (racemic) [bifenthrin] = more than 80%
CC1(C)[C@H](C(=O)O[C@H](C#N)c2cccc(Oc3ccccc3)c2)[C@@H]1C=C(Br)Br [deltamethrin] = more than 80%

* * *

Biological target: UGANCYP6P9b (Anopheles funestus, UniProt A0A0S1S7Y0)
Assay: Pyrethroid depletion (metabolism) assay with recombinant enzyme
Assay type: biochemical
Details: 20μM insecticide, 1 hour, vs -NADPH
For each of the molecules below, state its Percentage depletion.
One number for each entry, in %.

Example cases with answers are listed next.
CC1(C)C(C=C(Cl)Cl)C1C(=O)OCc1cccc(Oc2ccccc2)c1 (centres unmarked) = 88.58
CC1(C)[C@H](C(=O)O[C@H](C#N)c2cccc(Oc3ccccc3)c2)[C@@H]1C=C(Br)Br = 62.53
CC1(C)[C@H](C(=O)O[C@H](C#N)c2cccc(Oc3ccccc3)c2)[C@@H]1/C=C(\Cl)C(F)(F)F (racemic) = 78.76

Look at each molecule and report its Percentage depletion.
1. CCOc1ccc(C(C)(C)COCc2cccc(Oc3ccccc3)c2)cc1
2. Cc1c(COC(=O)[C@@H]2[C@H](/C=C(\Cl)C(F)(F)F)C2(C)C)cccc1-c1ccccc1 (racemic)

1: 57.91; 2: 88.8

* * *

Target: BENCYP6P9b (Anopheles funestus, UniProt A0A0S1S7Y0)
Assay: Pyrethroid depletion (metabolism) assay with recombinant enzyme
Type: biochemical
Details: 20μM insecticide, 1 hour, vs -NADPH
For each of the molecules below, state its Percentage depletion.
Answers are plain numbers, in %.

CC1(C)[C@H](C(=O)O[C@H](C#N)c2cccc(Oc3ccccc3)c2)[C@@H]1/C=C(\Cl)C(F)(F)F (racemic) [λ-cyhalothrin] = 49.35
Cc1c(COC(=O)[C@@H]2[C@H](/C=C(\Cl)C(F)(F)F)C2(C)C)cccc1-c1ccccc1 (racemic) [bifenthrin] = 89.19
CC1(C)[C@H](C(=O)O[C@H](C#N)c2cccc(Oc3ccccc3)c2)[C@@H]1C=C(Br)Br [deltamethrin] = 62.03
CCOc1ccc(C(C)(C)COCc2cccc(Oc3ccccc3)c2)cc1 [etofenprox] = 37.15

Could you now look at the following molecule, please?
Supply Percentage depletion value. Item: CC1(C)C(C=C(Cl)Cl)C1C(=O)OCc1cccc(Oc2ccccc2)c1 (centres unmarked) [permethrin]
89.63
